procedure details: coupled detection enzyme interference, dose response, artefact control for MgcRacGAP inhibitor project, biochemical, coupled enzyme counter-screen (AID 624351);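 further: signal is the ADP detection kit reading of free GDP without any GAP enzyme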
measurement context: ADP Hunter coupled enzyme counter-screen, fluorescence, no MgcRacGAP; series mostly up to 80 µM
In all, about 2,400 compounds went through this assay and about 1,400 (58%) were called active.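 How the source made its calls: active means inhibition of 30% or more at any tested dose; inconclusive means primary hits over the limit that were never retested; inactive means the rest.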 So high a share suggests a set chosen from earlier hits. This is one part of the list.
Hi there, use one of these labels in your reply, thanks! active, inactive

Examples with answers:
stdin: What was the test verdict on Cn1c(N2CCOCC2)c(/C=N/O)c2ccccc21 ?
stdout: active

stdin: Item: COc1ccc(NC(=O)C(C)N2CCN(C)CC2)cc1 (stereo unspecified)
stdout: inactive

stdin: Can you check COc1ccc(NCC(O)Cn2c(C)c(C)c3ccccc32)cc1 (stereo unspecified) next?
stdout: active

stdin: // next record COc1ccc(NCC(O)COc2ccc(C(C)(C)C)cc2)cc1 (stereo unspecified)
stdout: inactive

Continuing:
stdin: Test call, this compound: C/C=C/c1ccc(OCCCCN2CCN(CC)CC2)c(OC)c1
stdout: inactive

stdin: How about COc1ccccc1-n1c(=O)c2c3c(sc2n2c(=S)[nH]nc12)CCC3 ?
stdout: active

---

procedure details: coupled detection enzyme interference, dose response, artefact control for MgcRacGAP inhibitor project, biochemical, coupled enzyme counter-screen (AID 624351);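 further: signal is the ADP detection kit reading of free GDP without any GAP enzyme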
measurement context: ADP Hunter coupled enzyme counter-screen, fluorescence, no MgcRacGAP; series mostly up to 80 µM
Screen size: about 2,400 compounds; about 1,400 (58%) were called active.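 How the source made its calls: active means inhibition of 30% or more at any tested dose; inconclusive means primary hits over the limit that were never retested; inactive means the rest.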 So high a share suggests a set chosen from earlier hits. Some of the results follow.
In this exercise, the only acceptable responses are T (active), F (inactive)

Consider the following illustrative entries.
stdin: Assay outcome for CCOc1cc(/C=N/NC(=O)C(OC)c2ccccc2)ccc1O (stereo unspecified) : what was it?
stdout: T

stdin: Also, COc1cc(CN2CCC(C(=O)NC3CCCC3)CC2)cc(Br)c1O please.
stdout: F

stdin: Item: COc1cc(C(=S)NCc2ccccc2)cc(Br)c1O
stdout: F

stdin: Next compound up: COc1cc(/C=N/NC(=O)CC(=O)NC2CCCCC2)ccc1O
stdout: T

stdin: // query: COc1cc(/C=C/C(=O)OCC(=O)Nc2cccc(F)c2)ccc1O
stdout: T

Now for another entry.
stdin: // return assay outcome for COc1cc(CN2CCC(C(=O)NC3CCCC3)CC2)ccc1O
stdout: F

---

procedure details: coupled detection enzyme interference, dose response, artefact control for MgcRacGAP inhibitor project, biochemical, coupled enzyme counter-screen (AID 624351);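 further: signal is the ADP detection kit reading of free GDP without any GAP enzyme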
measurement context: ADP Hunter coupled enzyme counter-screen, fluorescence, no MgcRacGAP; series mostly up to 80 µM
In all, about 2,400 compounds went through this assay and about 1,400 (58%) were called active.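 How the source made its calls: active means inhibition of 30% or more at any tested dose; inconclusive means primary hits over the limit that were never retested; inactive means the rest.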 So high a share suggests a set chosen from earlier hits. The list shows a part of the results.
Please state which outcome applies, choosing from Y = active, N = inactive

Worked cases, answers included:
stdin: What did the test return for Cc1cccc(N2C(=O)/C(=C\c3ccc(C(=O)O)cc3)c3ccccc3C2=O)c1 ?
stdout: N

stdin: Subsequent entry: Oc1ccccc1/C=N/n1c(-c2ccccc2)n[nH]c1=S
stdout: Y

stdin: Here is the next molecule: Nc1cc([N+](=O)[O-])ccc1Nc1ccc(O)cc1
stdout: Y

stdin: Same read-out for COc1cc(/C=C(\C#N)C(=O)c2c[nH]c3ccccc23)cc(OC)c1O ?
stdout: Y

stdin: Try the molecule Cc1cc(NCCCCCCCNc2cc(C)nc3cc([N+](=O)[O-])ccc23)c2ccc([N+](=O)[O-])cc2n1
stdout: N

Now consider the entry below.
stdin: Could you kindly confirm the outcome this assay logged for Oc1ccc(/C=N/Nc2nn3cnnc3c3ccccc23)cc1 ?
stdout: Y
